Test system: HL-60
METHOD: Cytotoxicity against human HL60 cells after 48 hrs by MTT assay
Format: functional, cell-based
CONDITION SUMMARY: HL-60, 48 h
IC50 vs 1 mM: less than gives MET; not less than gives NOT MET.

Here are 2 molecules together with their reported answers.
>>> qualitative_label("NCCCC[C@H](NC(=O)N[C@@H](Cc1ccccc1)C(=O)NC[C@H](N)Cc1ccccc1)C(=O)O")
"NOT MET"
>>> qualitative_label("CC(C)C[C@H](NC(=O)N[C@@H](CS)C(=O)NC[C@H](N)Cc1ccccc1)C(=O)O")
"NOT MET"

Decide: IC50 of "N[C@@H](CNC(=O)[C@H](CS)NC(=O)N[C@@H](Cc1ccccc1)C(=O)O)Cc1ccccc1" strictly below 1 mM?
NOT MET

Decide: IC50 of "NCCCC[C@H](NC(=O)N[C@@H](CS)C(=O)NC[C@H](N)Cc1ccccc1)C(=O)O" strictly below 1 mM?
MET
